# ASSAY_TARGET: FGFR1 (Homo sapiens, UniProt P11362)
# Sequence (P11362 398-822 limits assumed): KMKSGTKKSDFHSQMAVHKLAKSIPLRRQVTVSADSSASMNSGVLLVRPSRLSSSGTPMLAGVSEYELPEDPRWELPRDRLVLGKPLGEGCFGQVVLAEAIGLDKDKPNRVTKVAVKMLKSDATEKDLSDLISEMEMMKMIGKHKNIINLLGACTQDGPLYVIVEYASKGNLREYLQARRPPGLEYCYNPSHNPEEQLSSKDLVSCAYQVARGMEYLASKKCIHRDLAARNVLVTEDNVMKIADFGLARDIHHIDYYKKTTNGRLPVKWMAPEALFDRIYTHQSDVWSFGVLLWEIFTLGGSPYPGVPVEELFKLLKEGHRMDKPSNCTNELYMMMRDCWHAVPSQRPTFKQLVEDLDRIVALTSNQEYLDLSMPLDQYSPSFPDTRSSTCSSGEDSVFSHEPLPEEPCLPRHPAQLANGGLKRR
# TEST_METHOD_NOTES: SelectScreen kinase activity profiling, FGFR1
# Format: biochemical
# Design: concentration or dose not given beside the values
# CONDITION_SUMMARY: first of two independent trials
OBSERVED_PROPERTY: % Inhibition (%)

- O=C(O)c1c(Br)c(Br)c(Br)c(Br)c1C1c2ccc(O)cc2Oc2cc(O)ccc21: 96
- COc1ccc(NCc2c(O)ccc3ccccc23)cc1: 1
- CCCCC[CH2][Hg][S]c1nc(N)nc2[nH]cnc12: 3
- CS(=O)(=O)c1ccc(/C=N/NC(N)=S)cc1: −3
- NC(=O)SCC(=O)Nc1ccc2ncccc2c1: −1
- COC(=O)c1ccc(CCc2cc(O)ccc2O)cc1: 4
- OC(c1cc(-c2ccccc2)nc2c1ccc1ccccc12)C1CCCCN1 (stereo not drawn): 5
- O=C(O)C1CCCN1Cc1ccc2c(c1)OCO2 (stereo not drawn): 4
- COc1cc2cc(c1Cl)N(C)C(=O)CC(OC(=O)C(C)C)C1(C)OC1C(C)C1CC(O)(NC(=O)O1)C(OC)/C=C/C=C(\C)C2 (stereo not drawn): 2

* * *

# ASSAY_TARGET: UniProt P35968
# Sequence (P35968 20-1356): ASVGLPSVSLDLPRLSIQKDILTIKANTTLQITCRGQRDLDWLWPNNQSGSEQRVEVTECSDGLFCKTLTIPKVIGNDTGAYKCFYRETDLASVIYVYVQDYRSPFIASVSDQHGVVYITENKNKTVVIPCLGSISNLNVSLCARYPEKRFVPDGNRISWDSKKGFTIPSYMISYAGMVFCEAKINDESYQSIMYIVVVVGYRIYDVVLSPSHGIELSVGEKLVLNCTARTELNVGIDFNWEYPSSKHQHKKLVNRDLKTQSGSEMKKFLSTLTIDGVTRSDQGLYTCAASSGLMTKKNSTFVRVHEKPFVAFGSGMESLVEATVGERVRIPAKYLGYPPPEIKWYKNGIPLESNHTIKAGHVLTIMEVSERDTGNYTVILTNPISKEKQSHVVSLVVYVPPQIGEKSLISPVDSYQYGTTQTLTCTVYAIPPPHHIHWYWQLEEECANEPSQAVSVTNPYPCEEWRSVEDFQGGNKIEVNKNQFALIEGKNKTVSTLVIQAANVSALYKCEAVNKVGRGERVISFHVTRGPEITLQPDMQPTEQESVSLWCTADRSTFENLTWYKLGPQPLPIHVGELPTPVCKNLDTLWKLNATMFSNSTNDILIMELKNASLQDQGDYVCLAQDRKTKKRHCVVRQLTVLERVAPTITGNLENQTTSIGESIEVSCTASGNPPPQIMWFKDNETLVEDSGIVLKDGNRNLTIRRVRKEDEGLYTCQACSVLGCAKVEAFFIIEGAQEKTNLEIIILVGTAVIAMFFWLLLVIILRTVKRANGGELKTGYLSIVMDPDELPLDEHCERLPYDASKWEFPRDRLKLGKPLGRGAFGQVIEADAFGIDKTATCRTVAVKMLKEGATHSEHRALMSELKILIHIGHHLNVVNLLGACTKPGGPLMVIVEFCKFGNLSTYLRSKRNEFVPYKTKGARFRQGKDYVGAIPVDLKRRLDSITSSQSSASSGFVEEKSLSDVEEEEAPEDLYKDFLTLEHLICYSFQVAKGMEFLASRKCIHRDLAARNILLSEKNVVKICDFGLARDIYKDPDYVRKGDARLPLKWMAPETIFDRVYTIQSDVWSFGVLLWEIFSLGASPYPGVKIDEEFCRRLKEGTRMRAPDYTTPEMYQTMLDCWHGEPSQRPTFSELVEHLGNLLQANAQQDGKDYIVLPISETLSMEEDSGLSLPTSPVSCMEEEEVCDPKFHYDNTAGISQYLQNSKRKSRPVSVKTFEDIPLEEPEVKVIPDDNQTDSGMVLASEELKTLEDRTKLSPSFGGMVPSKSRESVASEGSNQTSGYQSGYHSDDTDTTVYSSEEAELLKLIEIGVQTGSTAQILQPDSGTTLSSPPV
# TEST_METHOD_NOTES: SelectScreen kinase activity profiling, KDR(VEGFR2)
# Format: biochemical
# Parameters: concentration or dose not given beside the values
# CONDITION_SUMMARY: KDR(VEGFR2); first of two independent trials
OBSERVED_PROPERTY: % Inhibition (%)

• O=C(O)C1CCCN1Cc1ccc2c(c1)OCO2 (stereo not shown) = 5
• COc1ccc(-c2csc3c2-n2cccc2C3=O)cc1 = 1
• O=C1C(=Cc2ccccc2)C(NC2CCCCC2)c2ccccc21 (stereo not shown) = 28
• OC(c1cc(-c2ccccc2)nc2c1ccc1ccccc12)C1CCCCN1 (stereo not shown) = 4
• CC(C)(O)/C=C/C(=O)C(C)(O)C1C(O)CC2(C)C3CC=C4C(C=C(O)C(=O)C4(C)C)C3(C)C(=O)CC12C (stereo not shown) = 10
• COc1cc2cc(c1Cl)N(C)C(=O)CC(OC(=O)C(C)C)C1(C)OC1C(C)C1CC(O)(NC(=O)O1)C(OC)/C=C/C=C(\C)C2 (stereo not shown) = 8
• CC(C)(C)c1c2c(c(C(C)(C)C)c3c1OCN(Cc1ccccc1)C3)OCN(Cc1ccccc1)C2 = 13
• CS(=O)(=O)c1ccc(/C=N/NC(N)=S)cc1 = 12
• COc1ccc(CC2C(=O)NC(C)C(=O)N(C)C3C(=O)N(C)C(Cc4ccc(O)c(c4)Oc4ccc(cc4)C3O)C(=O)NC(C)C(=O)NC(C)C(=O)N2C)cc1 (stereo not shown) = 8
• O=[N+]([O-])c1ccc(S(=O)(=O)Cc2ccccc2)c([N+](=O)[O-])c1 = 14
• O=C(O)c1c(Br)c(Br)c(Br)c(Br)c1C1c2ccc(O)cc2Oc2cc(O)ccc21 = 103
• CSC(=[SH+])[N-]N=Cc1cccc(C)n1.CSC(=[SH+])[N-]N=Cc1cccc(C)n1.[Cu] = 21
• COc1ccc(CC2C(=O)NC(C)C(=O)N(C)C3Cc4ccc(cc4)Oc4cc(ccc4O)CC(C(=O)NC(C)C(=O)NC(C)C(=O)N2C)N(C)C3=O)cc1 (stereo not shown) = 0
• CC1(C)C2CCC1(C)C(OC(=O)CSC#N)C2 (stereo not shown) = 10
• Nc1cc[c]([Hg])cc1.Nc1nc2c(ncn2C2OC(CO)C(O)C2O)c(=[SH+])[nH]1 (stereo not shown) = 105
• CC1(C)CC(Nc2ccc(Nc3ccccc3)cc2)CC(C)(C)N1 = 15
• Cc1ccc(S(=O)(=O)OCC(=O)O)cc1 = 11
• CC(=N[N-]C(=S)SCc1ccccc1)c1ccccn1.[Cl][Cu+] = 19
• NC(=O)SCC(=O)Nc1ccc2ncccc2c1 = 16
• CCCCC[CH2][Hg][S]c1nc(N)nc2[nH]cnc12 = 40
• CSC(=[SH+])[N-]N=C(c1ccccn1)c1ccccn1.[Cu][Br] = 52
• O=[As](O)(O)c1ccc(Cc2ccc([As](=O)(O)O)cc2)cc1 = 76
• C1=Cc2ccccc2C1.C=C(C)c1ccccc1.[N-]=[N+]=Nc1ccccc1 = 4
• COC(=O)c1ccc(CCc2cc(O)ccc2O)cc1 = 10
• Cc1cc(O)c(-c2cc(O)c(C)cc2O)cc1O = 42
• CC1CCN(CC[S-])CC1.O.O.[Cl][Pt+] = 9
• CC(C)(C)c1cc(C#N)cc(Br)c1OP(=O)(Oc1c(Br)cc(C#N)cc1C(C)(C)C)c1ccccc1 = 9
• S=C1SCN(C2CCCCCCCCCCC2)CN1C1CCCCCCCCCCC1 = 9
• CCC(=O)OCN1C(=O)C=CC1=O = 90
• CC(C)(C)c1cc(O)ccc1O = 2
• O=C(c1no[n+]([O-])c1C(=O)c1csc2ccccc12)c1csc2ccccc12 = 10
• COc1ccc(NCc2c(O)ccc3ccccc23)cc1 = 21
• O=C1c2ccccc2NC(c2cc(Cl)cc(Cl)c2O)N1CCc1ccccn1 (stereo not shown) = 9
• CC1=C(Br)C(=O)C(C)=C(Br)C1=O.Cc1c(O)c(Br)c(C)c(O)c1Br = 100

* * *

# Tested on: angiogenesis genes in dermal microvascular endothelial cells
# TEST_METHOD_NOTES: Real time RT-PCR of angiogenesis gene expression during endothelial tube formation
# Assay type: cell-based
# CONDITION_SUMMARY: 1 μM SM, 24 hours
OBSERVED_PROPERTY: Log2 fold-change of gene expression: Rasip1

- O=C1C(=Cc2ccccc2)C(NC2CCCCC2)c2ccccc21 (stereo not drawn) [compound 150117]: −1.7
- COc1cc2cc(c1Cl)N(C)C(=O)CC(OC(=O)C(C)C)C1(C)OC1C(C)C1CC(O)(NC(=O)O1)C(OC)/C=C/C=C(\C)C2 (stereo not drawn) [compound 292222]: −0.3
- CCC(=O)OCN1C(=O)C=CC1=O [compound 19630]: 3.1
- COc1ccc(CC2C(=O)NC(C)C(=O)N(C)C3Cc4ccc(cc4)Oc4cc(ccc4O)CC(C(=O)NC(C)C(=O)NC(C)C(=O)N2C)N(C)C3=O)cc1 (stereo not drawn) [compound 259969]: −1.1
- COC(=O)C1CC(=O)C(C(=O)OC)CC1=O (stereo not drawn) [Compound 122567]: −1.2
- CC1CCN(CC[S-])CC1.O.O.[Cl][Pt+] [compound 292596]: −0.5

* * *

Known Log2 fold-change of gene expression: Ccbp2 of a selection of compounds
# Test system: angiogenesis genes in dermal microvascular endothelial cells
# TEST_METHOD_NOTES: Real time RT-PCR of angiogenesis gene expression during endothelial tube formation
# Assay type: cell-based
# CONDITION_SUMMARY: 1 μM SM, 24 hours
OBSERVED_PROPERTY: Log2 fold-change of gene expression: Ccbp2

- CCC(=O)OCN1C(=O)C=CC1=O: −0.1
- COc1cc2cc(c1Cl)N(C)C(=O)CC(OC(=O)C(C)C)C1(C)OC1C(C)C1CC(O)(NC(=O)O1)C(OC)/C=C/C=C(\C)C2 (stereo not drawn): 0.4
- CC1CCN(CC[S-])CC1.O.O.[Cl][Pt+]: 0.0
- COc1ccc(CC2C(=O)NC(C)C(=O)N(C)C3Cc4ccc(cc4)Oc4cc(ccc4O)CC(C(=O)NC(C)C(=O)NC(C)C(=O)N2C)N(C)C3=O)cc1 (stereo not drawn): 5.6
- COC(=O)C1CC(=O)C(C(=O)OC)CC1=O (stereo not drawn): 1.4
- O=C1C(=Cc2ccccc2)C(NC2CCCCC2)c2ccccc21 (stereo not drawn): 0.4

* * *

# System: angiogenesis genes in dermal microvascular endothelial cells
# TEST_METHOD_NOTES: Real time RT-PCR of angiogenesis gene expression during endothelial tube formation
# Format: cell-based
# CONDITION_SUMMARY: 1 μM SM, 24 hours; 2nd listing (r98)
Rule: Log2 fold-change of gene expression: HPRT1 under 0.6 gives criterion not met, otherwise criterion met.

- COc1ccc(CC2C(=O)NC(C)C(=O)N(C)C3Cc4ccc(cc4)Oc4cc(ccc4O)CC(C(=O)NC(C)C(=O)NC(C)C(=O)N2C)N(C)C3=O)cc1 (stereo not drawn): criterion not met
- CC1CCN(CC[S-])CC1.O.O.[Cl][Pt+]: criterion not met
- COC(=O)C1CC(=O)C(C(=O)OC)CC1=O (stereo not drawn): criterion not met
- CCC(=O)OCN1C(=O)C=CC1=O: criterion met
- COc1cc2cc(c1Cl)N(C)C(=O)CC(OC(=O)C(C)C)C1(C)OC1C(C)C1CC(O)(NC(=O)O1)C(OC)/C=C/C=C(\C)C2 (stereo not drawn): criterion met

* * *

# Test system: angiogenesis genes in dermal microvascular endothelial cells
# TEST_METHOD_NOTES: Real time RT-PCR of angiogenesis gene expression during endothelial tube formation
# Format: cell-based
# CONDITION_SUMMARY: 1 μM SM, 24 hours; 1st listing (r50)
# Description: For gene expression studies, three independent experiments were run for each SM tested. […] Fluorescence was measured in every cycle and a melting curve was run after the PCR by increasing temperature from 50 to 96° C. […] The genes that were monitored were selected based on their relevance to the angiogenesis process. […]
OBSERVED_PROPERTY: Log2 fold-change of gene expression: HPRT1

• CCC(=O)OCN1C(=O)C=CC1=O = 0.8
• COc1cc2cc(c1Cl)N(C)C(=O)CC(OC(=O)C(C)C)C1(C)OC1C(C)C1CC(O)(NC(=O)O1)C(OC)/C=C/C=C(\C)C2 (stereo not drawn) = 0.3
• COc1ccc(CC2C(=O)NC(C)C(=O)N(C)C3Cc4ccc(cc4)Oc4cc(ccc4O)CC(C(=O)NC(C)C(=O)NC(C)C(=O)N2C)N(C)C3=O)cc1 (stereo not drawn) = 0.6
• COC(=O)C1CC(=O)C(C(=O)OC)CC1=O (stereo not drawn) = 0.0
• O=C1C(=Cc2ccccc2)C(NC2CCCCC2)c2ccccc21 (stereo not drawn) = −0.4
• CC1CCN(CC[S-])CC1.O.O.[Cl][Pt+] = −0.5

Hey, just so you know, these numbers are from patent US9504729B2.
